tested on: Mus musculus; test: Antiobesity activity in TBU8 high fat diet-induced obese C57/BL6 mouse assessed as decrease in obese-induced elevated serum cholesterol level at 30 mg/kg, po administered once daily for 14 days relative to fat control; assay type: functional, C57Bl/6; design: scale not given: the % may be the effect or the level left
Record form. Attribute: Activity. Fill in for each entry.
Answers are plain numbers, in %.

Molecule: CCc1c(C(=O)NN2CCCCC2)nn(-c2ccc(Cl)cc2Cl)c1-c1ccc(C2CC2)cc1
Activity / %: 19

Go through the items and report each one's Activity.
1. Cc1c(C(=O)NN2CCCCC2)nn(-c2ccc(Br)cc2Cl)c1-c1ccc(C2CC2)cc1
2. Cc1c(C(=O)NN2CCCCC2)nn(-c2ccc(Cl)cc2Cl)c1-c1ccc(Cl)cc1 [RIMONABANT]
3. CCc1c(C(=O)NN2CCCC2)nn(-c2ccc(Cl)cc2Cl)c1-c1ccc(C2CC2)cc1

[16, 0, 36]
